Experiment: Stability study of cefsulodin sodium stored at 55° C., purity by HPLC (Example 3)
Format: physicochemical
Conditions: Day 28, HPLC peak area
observation_type: Purity Day 28 (%)
One number for each entry, in %.

molecule: NC(=O)c1cc[n+](CC2=C(C(=O)[O-])N3C(=O)[C@@H](NC(=O)[C@@H](c4ccccc4)S(=O)(=O)[O-])[C@H]3SC2)cc1.[Na+] [Lot 3, cefsulodin sodium]
value_units: %
Purity Day 28: 93.9

molecule: NC(=O)c1cc[n+](CC2=C(C(=O)[O-])N3C(=O)[C@@H](NC(=O)[C@@H](c4ccccc4)S(=O)(=O)[O-])[C@H]3SC2)cc1.[Na+] [Lot 1, cefsulodin sodium]
value_units: %
Purity Day 28: 94.3

molecule: NC(=O)c1cc[n+](CC2=C(C(=O)O)N3C(=O)[C@@H](NC(=O)[C@@H](c4ccccc4)S(=O)(=O)[O-])[C@H]3SC2)cc1 [Lyophilized, cefsulodin sodium]
value_units: %
Purity Day 28: 80.4

Request: Look at this molecule and give its reported Purity Day 28. NC(=O)c1cc[n+](CC2=C(C(=O)[O-])N3C(=O)[C@@H](NC(=O)[C@@H](c4ccccc4)S(=O)(=O)[O-])[C@H]3SC2)cc1.[Na+] [Lot 2, cefsulodin sodium]
Result: 94.4

====

Answer each item with its documented Purity Day 0.
Test: Stability study of cefsulodin sodium stored at 55° C., purity by HPLC (Example 3)
Format: physicochemical
Details: Day 0, HPLC peak area
One number for each entry, in %.

compound: NC(=O)c1cc[n+](CC2=C(C(=O)O)N3C(=O)[C@@H](NC(=O)[C@@H](c4ccccc4)S(=O)(=O)[O-])[C@H]3SC2)cc1 [Lyophilized, cefsulodin sodium]
observation_type: Purity Day 0
value_units: %
numeric_result: 98.8

For every listed record, write down its Purity Day 0.
1. NC(=O)c1cc[n+](CC2=C(C(=O)[O-])N3C(=O)[C@@H](NC(=O)[C@@H](c4ccccc4)S(=O)(=O)[O-])[C@H]3SC2)cc1.[Na+] [Lot 1, cefsulodin sodium]
2. NC(=O)c1cc[n+](CC2=C(C(=O)[O-])N3C(=O)[C@@H](NC(=O)[C@@H](c4ccccc4)S(=O)(=O)[O-])[C@H]3SC2)cc1.[Na+] [Lot 3, cefsulodin sodium]
3. NC(=O)c1cc[n+](CC2=C(C(=O)[O-])N3C(=O)[C@@H](NC(=O)[C@@H](c4ccccc4)S(=O)(=O)[O-])[C@H]3SC2)cc1.[Na+] [Lot 2, cefsulodin sodium]

Result:
1. 99.2
2. 99.3
3. 99.2
